# Test Protocol: Tanguay_ZF_120hpf_ActivityScore_legacy: (Legacy) Oregon State University Tanguay Lab 120 Hour Post-fertilization zebrafish Assay Score for Activity (AID 2283742)
Calls of active or inactive are those of the source. The calls were made as follows: active = hit-call score of the fitted dose curve at least 0.9, where 1 is the maximum; inconclusive = response in the unintended direction; inactive = score below 0.9.
Measured Endpoint: outcome

C/C=C/c1ccc(OC)cc1 | inactive
CC1(C)C(=O)NC(=O)N1CO | inactive
CCCCC(CC)CO (stereo not drawn) | inactive

###

# Test Protocol: ACEA_ER_AUC_viability: ACEA Biosciences xCELLigence Real-Time Cell Analysis on Estrogen Receptor Agonism for Viability (AID 2283782);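 also: continuous compound exposure with impedance area under curve over 80 h; hit means loss of impedance signal meaning reduced cell growth or viability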
Results filed as inconclusive are left out. Active and inactive are the calls of the source. The calls were made as follows: active = hit-call score of the fitted dose curve at least 0.9, where 1 is the maximum; inconclusive = response in the unintended direction; inactive = score below 0.9.
Your answer must be one of the following: active, inactive

CC(=O)OC1CC(C)OC(C)O1 (stereo not drawn) | inactive
Cc1ccc(C(C)(C)C)c(O)c1 | active

(Q) // param item: "O=C(O)c1cccnc1" ; yields the recorded call
(A) inactive

###

# Test Protocol: BSK_hDFCGF_SRB: Viability Assessment in the BioMAP Diversity Plus: hDFCGF Assay (AID 2283061);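 also: cells exposed to compound for 24 h before the read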
# Applied Conditions: primary human foreskin fibroblasts
Activity calls are given as the source filed them. The calls were made as follows: active = hit-call score of the fitted dose curve at least 0.9, where 1 is the maximum; inactive = score below 0.9.
Your answer must be one of the following: Y (active), N (inactive)

CCc1cc(C2=C(C(=O)O)N(c3ccccc3C(F)(F)F)S(=O)(=O)c3ccccc32)cc2c1OCO2 | N

(Q) // param item: "NC1CCCCC1" ; yields the recorded call
(A) N

###

# Read-out: Transforming Growth Factor (TGFA), TGFA (gene 7039)
# Test Protocol: LTEA_HepaRG_TGFA: Life Technologies and Expression Analysis (LTEA) Assay for Transforming Growth Factor (TGFA) using HepaRG (AID 2283532)
# Applied Conditions: mRNA level, 48 h; actives raise or lower the signal
Calls of active or inactive are those of the source. How the source made its calls: active means hit-call score of the fitted dose curve at least 0.9, where 1 is the maximum; inactive means score below 0.9.
Your answer must be one of the following: 1 = active, 0 = inactive

O=C(O)CC(O)(CC(=O)O)C(=O)O | 0
CCC(C)N(C)C(=O)c1cc2ccccc2c(-c2ccccc2Cl)n1 (configuration not stated) | 0
CC(C)c1cccc(C(C)C)c1 | 0
CC1=C(C)S(=O)(=O)CCS1(=O)=O | 1
CS(=O)(=O)c1ccc([C@@H](C[C@H]2CCC(=O)C2)C(=O)Nc2cnccn2)cc1Cl | 1

(Q) // param item: "NC(=Nc1ccccc1)Nc1ccccc1" ; yields the recorded call
(A) 0

(Q) // param item: CC(=O)OC1CC(C)OC(C)O1 (configuration not stated) ; yields the recorded call
(A) 0

(Q) // param item: "CCCCCCCCCCCCCCOS(=O)(=O)O" ; yields the recorded call
(A) 0

(Q) // param item: "O=C1NC(=O)C(c2ccccc2)(c2ccccc2)N1" ; yields the recorded call
(A) 0

###

# Test Protocol: BSK_hDFCGF_SRB: Viability Assessment in the BioMAP Diversity Plus: hDFCGF Assay (AID 2283061);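 also: cells exposed to compound for 24 h before the read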
# Applied Conditions: primary human foreskin fibroblasts
The source made the active and inactive calls. How the source made its calls: active means hit-call score of the fitted dose curve at least 0.9, where 1 is the maximum; inactive means score below 0.9.
Your answer must be one of the following: active, inactive

Answered cases to consult:
O=Cc1ccccc1C=O | inactive
O=C1OC(c2ccc(O)cc2)(c2ccc(O)cc2)c2ccccc21 | inactive
CCCCC(CC)COP(=O)(OCC(CC)CCCC)OCC(CC)CCCC (centres undefined) | inactive

(Q) // param item: "CCCCc1nc2cccnc2n1Cc1ccc(-c2ccccc2-c2nnn[nH]2)cc1" ; yields the recorded call
(A) inactive

(Q) // param item: "O=C(O)c1cccnc1" ; yields the recorded call
(A) inactive

(Q) // param item: "O=C1NC(=O)C(c2ccccc2)(c2ccccc2)N1" ; yields the recorded call
(A) inactive

(Q) // param item: "CN(C)CCCN1c2ccccc2Sc2ccc(Cl)cc21" ; yields the recorded call
(A) active

(Q) // param item: "N[C@@H](Cc1c[nH]c2ccccc12)C(=O)O" ; yields the recorded call
(A) inactive

###

# Read-out: Transforming Growth Factor (TGFA), TGFA (gene 7039)
# Test Protocol: LTEA_HepaRG_TGFA: Life Technologies and Expression Analysis (LTEA) Assay for Transforming Growth Factor (TGFA) using HepaRG (AID 2283532)
# Applied Conditions: mRNA level, 48 h; actives raise or lower the signal
Calls of active or inactive are those of the source. Rule for the calls: active = hit-call score of the fitted dose curve at least 0.9, where 1 is the maximum; inactive = score below 0.9.
Measured Endpoint: outcome

O=C1OC(c2ccc(O)cc2)(c2ccc(O)cc2)c2ccccc21 | inactive
CC(=O)O | inactive
C#CC(O)C(CC)CCCC (stereo not drawn) | inactive
